# Tested On: T1, cynomolgus monkey 4-1BB on CHO-K1 cells (cynomolgus monkey)
# T1 chain: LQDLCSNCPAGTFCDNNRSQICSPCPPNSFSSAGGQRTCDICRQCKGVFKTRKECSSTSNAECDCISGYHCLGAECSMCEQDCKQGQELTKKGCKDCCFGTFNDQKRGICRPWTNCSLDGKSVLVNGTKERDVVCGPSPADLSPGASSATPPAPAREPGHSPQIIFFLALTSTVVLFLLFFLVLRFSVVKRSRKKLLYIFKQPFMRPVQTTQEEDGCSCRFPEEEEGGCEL
# Experiment Notes: FACS; FIG. 12C
Endpoint Name: EC50 (nM)

The cases that follow already have their EC50 on record.
{"Binder": "PR001768 (antibody, V domains shown) VH: EVQLLESGGGLVQPGGSLRLSCAASGFTFSNYAMTWVRQAPGKGLEWVSSISGSGDSTYYADSVKGRFTISRDNSKNTLYLQMNSLRAEDTAVYYCAKEGTGTTSDYYYNVDVWGQGTTVTVSS", "Unit Of Measure": "nM", "Observed Measurement": 6.97}
{"Binder": "Utomilumab (antibody, V domains shown) VH: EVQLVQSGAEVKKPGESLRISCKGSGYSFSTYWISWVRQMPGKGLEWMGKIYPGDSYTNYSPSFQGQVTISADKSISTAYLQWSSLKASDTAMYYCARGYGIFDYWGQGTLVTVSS VL: SYELTQPPSVSVSPGQTASITCSGDNIGDQYAHWYQQKPGQSPVLVIYQDKNRPSGIPERFSGSNSGNTATLTISGTQAMDEADYYCATYTGFGSLAVFGGGTKLTVLG", "Unit Of Measure": "nM", "Observed Measurement": 3.46}

P. PR001774 (antibody, V domains shown) VH: EVQLVESGGGLVQPGGSLRLSCAASGFTFSSFAMTWVRQAPEKGLEWVSTISGSGDTTYYADSVKGRFTISRDSSKNTLYLQMNSLRAEDSAVYFCAKEATAMASDYYYGVDVWGQGTTVTVSS
Q. PR001771 (antibody, V domains shown) VH: EVQLLESGGGLVQPGGSLRLSCAASGFTFSNYAMTWVRQPPGKGLEWVSSISGSGGSTYYADSVKGRFTISRDNSKNTLYLQMNSLRAEDTAVYYCAKEGTGTTSDYYYNVDVWGQGTTVTVSS
Hi, I'm comparing P with Q and wondering which one has the bigger number for EC50. Any idea? Please respond with the label that marks your chosen entry.
P
